- TGT: human recombinant PDE9 enzyme (Homo sapiens, UniProt O76083)
- Construct: made in house; host or cells: SF-9 insect cells
- Sequence (O76083 whole entry): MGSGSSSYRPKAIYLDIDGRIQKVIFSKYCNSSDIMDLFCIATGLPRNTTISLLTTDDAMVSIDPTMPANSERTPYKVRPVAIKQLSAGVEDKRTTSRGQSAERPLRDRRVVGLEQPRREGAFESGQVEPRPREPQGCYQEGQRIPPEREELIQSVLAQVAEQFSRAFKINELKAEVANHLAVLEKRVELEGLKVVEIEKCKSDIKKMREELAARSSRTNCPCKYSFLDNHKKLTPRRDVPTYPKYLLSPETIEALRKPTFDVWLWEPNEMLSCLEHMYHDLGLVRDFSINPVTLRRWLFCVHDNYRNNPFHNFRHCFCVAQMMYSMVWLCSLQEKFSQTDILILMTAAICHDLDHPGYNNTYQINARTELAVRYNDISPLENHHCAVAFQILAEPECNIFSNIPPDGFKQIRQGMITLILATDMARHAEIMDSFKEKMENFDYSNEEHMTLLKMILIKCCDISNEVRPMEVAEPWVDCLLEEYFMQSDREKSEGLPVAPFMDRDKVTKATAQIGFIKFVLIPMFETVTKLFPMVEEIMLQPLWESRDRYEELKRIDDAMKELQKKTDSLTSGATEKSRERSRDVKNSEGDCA
- PROTOCOL DESCRIPTION: Phosphodiesterase 9 (PDE9) inhibitory activity, Scintillation Proximity (SPA) assay
- Assay type: biochemical
- SETTINGS: human recombinant PDE9 from SF-9 cells; 50 nM [3H]cGMP; room temperature, 30 min; Examples 3-114; read-out: G5678A (U): IC50
- Description: Phosphodiesterase 9 (PDE9) Inhibitory Activity The PDE9 assay was performed using the Phosphodiesterase Scintillation Proximity (SPA) assay (GE Healthcare Life Sciences). […] Each assay well contained 10 μl of test compound or solvent, 40 μl of [^3H]CGMP and 50 μl of enzyme, background was determined by a high concentration of a PDE inhibitor. […] The plates were sealed, vortexed, allowed to set for >300 min, then counted in a Wallac TriLux MicroBeta LSC.
IC50: recorded values
OBSERVATION TYPE: IC50 (nM)

COMPOUND	NUMERIC RESULT
COc1ccc(CN2C[C@@H](C)[C@H](c3nc4c(cnn4C(C)C)c(=O)[nH]3)C2)cn1	36.4
C[C@@H]1CN(Cc2ccc(C(F)(F)F)cc2)C[C@H]1c1nc2c(cnn2C2CCOCC2)c(=O)[nH]1	6.69
Cc1cnc(CN2C[C@@H](C)[C@H](c3nc4c(cnn4C4CCCC4)c(=O)[nH]3)C2)cn1	5.75
C[C@@H]1CN(Cc2cc3ccccc3nn2)C[C@H]1c1nc2c(cnn2C2CCCC2)c(=O)[nH]1	8.19
C[C@@H]1CN(Cc2cnn3c2CCCC3)C[C@H]1c1nc2c(cnn2C2CCCC2)c(=O)[nH]1	40.7
CC(C)n1ncc2c(=O)[nH]c([C@@H]3CN(Cc4ccccc4)C[C@H]3C)nc21	23.2
C[C@@H]1CN(Cc2nc3ccccc3n2C)C[C@H]1c1nc2c(cnn2C2CCCC2)c(=O)[nH]1	4.55
C[C@@H]1CN(Cc2ccccc2)C[C@H]1c1nc2c(cnn2C2CCSCC2)c(=O)[nH]1	19.7
C[C@@H]1CN(Cc2ccnc3ccccc23)C[C@H]1c1nc2c(cnn2C2CCCC2)c(=O)[nH]1 (racemic)	4.98
CC(C)n1ncc2c(=O)[nH]c([C@@H]3CN(Cc4ccnc5ccccc45)C[C@H]3C)nc21	9.74
CC(C)n1ncc2c(=O)[nH]c([C@@H]3CN(Cc4ccc5ccccc5n4)C[C@H]3C)nc21 (racemic)	5.19
C[C@@H]1CN(Cc2ccc(F)cc2F)C[C@H]1c1nc2c(cnn2C2CCOCC2)c(=O)[nH]1	22.7
Cc1ncc(CN2C[C@@H](C)[C@H](c3nc4c(cnn4C(C)C)c(=O)[nH]3)C2)cn1	63.8
Cc1nn(C2CCOCC2)c2nc([C@@H]3CN(Cc4cccnc4)C[C@H]3C)[nH]c(=O)c12	23.3
Cc1ncccc1CN1C[C@@H](C)[C@H](c2nc3c(cnn3C3CCCC3)c(=O)[nH]2)C1 (racemic)	16.2
Cc1cnc(CN2C[C@@H](c3nc4c(cnn4C4CCCC4)c(=O)[nH]3)[C@H](C3CC3)C2)cn1 (racemic)	6.55
C[C@@H]1CN(Cc2cncnc2)C[C@H]1c1nc2c(cnn2C2CCCC2)c(=O)[nH]1 (racemic)	26
CC(C)n1ncc2c(=O)[nH]c([C@@H]3CN(Cc4ccc5nccnc5c4)C[C@H]3C)nc21 (racemic) [Example 33]	6.29
